This collection of values is drawn from PubChem BioAssay (NCI).

- Tested on: SNB-19 CNS
- procedure_details: NCI tumour cell line growth inhibition, 48 h
GI50 values, listed per item
metric: GI50

{"columns": ["compound", "reported_measurement"],
 "data": [
  ["C1=C\\CCCCN2CC[C@H]3[C@H](CCCC/C=C\\CCCN4C[C@@H](CCCCC/1)C[C@@H]3C4)C2", "16.4 µM"],
  ["COc1ccc2nc3ccccc3c(NCc3ccccc3)c2c1", "3.41 µM"],
  ["O=C(Nc1ccc(Cl)cc1)N1CCN(c2ccc3nncn3n2)CC1", "> 100 µM"],
  ["CC(C)(C)OC(=O)N1Cc2cc3ccccc3nc2C1CO (stereo not drawn)", "> 100 µM"],
  ["Nc1no[n+]([O-])c1-c1nnc2c(n1)-c1ccccc1C2=O", "4.88 µM"],
  ["CC(=O)O[C@H]1CC[C@]2(C)C3C(=O)C[C@]4(C)[C@@H](C(C)CCC(=O)O)CC[C@@]4(C)[C@@H]3CC[C@H]2C1(C)C (stereo partly drawn)", "21 µM"],
  ["C/C=C(\\C)C(=O)O[C@@H]1C=CC(=O)O[C@H]1CNC(=O)[C@H](C)O", "27 µM"],
  ["COC(=O)[C@H](CCCCNC(=O)OCc1ccccc1)NC(=O)[C@@H](NC(=O)Nc1cc(C(F)(F)F)cc(C(F)(F)F)c1)C(C)C", "> 10 µM"],
  ["Nc1cc(N)c2nc(-c3ccccc3)c(NCc3ccc(Cl)c(Cl)c3)nc2c1", "22.5 µM"],
  ["Cc1cc(C)c(C(=O)C(C)C(c2ccccc2)c2ccc(Cl)cc2)c(C)c1 (stereo not drawn)", "> 100 µM"],
  ["C=C1C(O)C2CC(C)(C)C(=O)C2=C(CC(C)C)C12CC2 (stereo not drawn)", "> 100 µM"],
  ["NCCCNc1nc2ccccc2c2c(=O)c3cc(F)cc(Cl)c3sc12", "1.77 µM"],
  ["Cc1cc(OCc2nn(CN3CCN(C)CC3)c(=S)n2/N=C/c2ccc(F)cc2)ccc1Cl", "17.6 µM"],
  ["Cc1cn2c(/C=C3\\C(=O)N(C)c4ccc(Cl)cc43)c(C)nc2s1", "4.25 µM"],
  ["C(=C\\c1ccc(OCC2CO2)cc1)/C1=NCOC1 (stereo not drawn)", "4.73 µM"],
  ["COc1cc(/C=C/c2ccnc3ccccc23)cc(OC)c1OC", "6.71 µM"],
  ["CCCCNCCCCCNc1cc(OC)cc2cccnc12", "13.8 µM"],
  ["CCS(=O)(=O)N1CCN(c2ccc(Nc3ncc(C(N)=O)c(NC4CC4)n3)cc2)CC1", "38 µM"]
]}
